Test system: icilin-induced “wet-dog” shakes (WDS)
Test: Inhibition of Icilin-Induced “Wet-Dog” Shakes in Rats
Type: in vivo, Sprague Dawley rats
Settings: po; rat, p.o., dose 10 mg/kg, 1.5 hrs; read-out: Icilin % Inhibition @1.5 hrs
Where a name gives a salt, the structure may show the parent alone.
ATTRIBUTE_MEASURED: inhibition in vivo at 10 mg/kg (%)
Write down the numeric answer in % and omit the unit.

Recorded results for 2 molecules are shown here.
>>> value("Cn1nc(C(C)(C)C)c(Cl)c1-c1nc2cc(-c3c(F)cccc3C(F)(F)F)ccc2[nH]1 [Compound 86, hydrochloride]")
98.7
>>> value("Cl.Cn1nc(C(C)(C)C)c(Cl)c1-c1nc2cc(-c3c(F)cccc3F)ccc2[nH]1 [Compound 85, hydrochloride]")
96.4

CC(C)(C)c1cc(-c2nc3cc(-c4ccccc4C(F)(F)F)ccc3[nH]2)on1 [Compound 9, sodium salt] has a reported inhibition in vivo at 10 mg/kg of 66.4

// Cn1nc(C(C)(C)C)c(Cl)c1-c1nc2cc(-c3ccccc3C(F)(F)F)ccc2[nH]1 [Compound 50, sodium salt] : inhibition in vivo at 10 mg/kg value = 47.4

response.value for Cn1nc(C(C)(C)C)c(Cl)c1-c1nc2cc(-c3ccccc3Cl)ccc2[nH]1 [Compound 89, hydrochloride] (field: inhibition in vivo at 10 mg/kg) = 91.5
